Hello, the source for this data is paper PMC5285354, in case you need it.

test system: Enterococcus faecalis (ATCC 29212); type: cell-based; details: ATCC 29212, 18 h
Where a SMILES comes first, the peptide text is derived from it. The star is where a group is joined. Palmitoyl = CCCCCCCCCCCCCCCC(=O)*; Myristoyl = CCCCCCCCCCCCCC(=O)*; Lauroyl = CCCCCCCCCCCC(=O)*; Decanoyl = CCCCCCCCCC(=O)*
measured.property: MIC Enterococcus fecalis
Could you give the number and then its unit, please?

Observe how each entry below is paired with its result.
CCCCCCCCCC(=O)N[C@@H](CCCCN)C(=O)NCC(=O)N[C@@H](CCCCN)C(=O)NCC(N)=O [C10-KGKG-NH2] (Decanoyl-KGKG-NH2)	2000 µg/mL
CCCCCCCCCCCCCCCC(=O)N[C@@H](CCCCN)C(N)=O	32 µg/mL
CCCCCCCCCCCC(=O)N[C@@H](CCCCN)C(=O)NCC(N)=O [C12-KG-NH2] (Lauroyl-Lys-Gly-NH2)	256 µg/mL
CCCCCCCCCCCC(=O)N[C@@H](CCCCN)C(N)=O	256 µg/mL
CCCCCCCCCCCC(=O)N[C@@H](CCCCN)C(=O)N[C@@H](CCCCN)C(N)=O	512 µg/mL
CCCCCCCCCCCCCCCC(=O)N[C@@H](CCCCN)C(=O)NCC(=O)N[C@@H](CCCCN)C(=O)NCC(N)=O [C16-KGKG-NH2] (Palmitoyl-KGKG-NH2)	16 µg/mL

Notebook: CCCCCCCCCCCCCCCC(=O)N[C@@H](CCCCN)C(=O)NCC(=O)N[C@@H](CCCCN)C(N)=O [C16-KGK-NH2] (Palmitoyl-Lys-Gly-Lys-NH2) , MIC Enterococcus fecalis read as 8 µg/mL

Notebook: CCCCCCCCCCCCCCCC(=O)N[C@@H](CCCCN)C(=O)N[C@@H](CCCCN)C(N)=O , MIC Enterococcus fecalis read as 8 µg/mL

Notebook: CCCCCCCCCCCCCC(=O)N[C@@H](CCCCN)C(=O)N[C@@H](CCCCN)C(N)=O , MIC Enterococcus fecalis read as 32 µg/mL

Notebook: CCCCCCCCCCCCCC(=O)N[C@@H](CCCCN)C(=O)NCC(=O)N[C@@H](CCCCN)C(N)=O [C14-KGK-NH2] (Myristoyl-Lys-Gly-Lys-NH2) , MIC Enterococcus fecalis read as 64 µg/mL

====

Reported MFC Aspergillus brasiliensis is given for each of the following compounds.
tested on: Aspergillus brasiliensis (ATCC 16404); format: cell-based; details: ATCC 16404, 48 h
Give your result in µg/mL as a bare value.

CCCCCCCCCCCC(=O)N[C@@H](CCCCN)C(=O)N[C@@H](CCCCN)C(=O)N[C@@H](CCCCN)C(N)=O	512

Now look at this entry.
Notebook: CCCCCCCC(=O)N[C@@H](CCCCN)C(=O)N[C@@H](CCCCN)C(=O)N[C@@H](CCCCN)C(N)=O , MFC Aspergillus brasiliensis read as 2000

====

Reported MBC Bacillus subtillis is given for each of the following compounds.
tested on: Bacillus subtilis (ATCC 6633); type: cell-based; conditions: ATCC 6633, 24 h
Where a SMILES comes first, the peptide text is derived from it. The star is where a group is joined. Myristoyl = CCCCCCCCCCCCCC(=O)*
Give your result in µg/mL as a bare value.

Observe how each entry below is paired with its result.
CCCCCCCCCCCCCC(=O)N[C@@H](CCCCN)C(N)=O [C14-K-NH2]	32
CCCCCCCCCCCCCC(=O)N[C@@H](CCCCN)C(=O)NCC(N)=O [C14-KG-NH2] (Myristoyl-Lys-Gly-NH2)	16

Notebook: CCCCCCCCCCCCCCCC(=O)N[C@@H](CCCCN)C(N)=O [C16-K-NH2] , MBC Bacillus subtillis read as 8
